Test system: SN12C renal
test: NCI-60 one-dose screen, 48 h (100 = growth as untreated, 0 = no growth, -100 = all killed)
testContext: 10 µM unless noted
The panel holds about 83,000 compounds, 20% with a hit somewhere; the sample as a whole holds those more often. Calls of active or inactive are those of the source. The calls were made as follows: active = growth percent below 10; inactive = the rest.
Would you kindly list growth for each of these compounds?

Field growth (entry Cc1cn(-c2cc(NC(=O)c3cncc(C#Cc4c(N)ncc5ccc(F)cc45)c3)cc(C(F)(F)F)c2)cn1 ) reads 54.5% (inactive)

Field growth (entry COc1ccc(C(=S)N2CCN(c3ccc(Cl)cc3)CC2)cc1 ) reads 85.4% (inactive)

Field growth (entry CCN(CC)CCCN1C(=O)c2c(c(C)c3c(oc4ccc(OC)cc43)c2C)C1=O ) reads 100% (inactive)

Field growth (entry Cc1ccc(C(=O)Nc2cccc(C#Cc3cccc4[nH]nc(N)c34)c2)cc1C(F)(F)F ) reads 65.2% (inactive)

Field growth (entry CN(C)CCCC1(c2ccc(F)cc2)OCc2cc(-c3ccc4cc[nH]c4c3)ccc21 (configuration not stated) ) reads 58.6% (inactive)

Field growth (entry O=C(Nc1ncccc1OCc1ccccc1)NC1CCCCCC1 ) reads 78.6% (inactive)

Field growth (entry CC(C)(C)n1cc(-c2ccnc(NCCCNS(=O)(=O)c3cccc4ccccc34)c2)c(-c2cccc(F)c2)n1 ) reads 73.3% (inactive)

Field growth (entry N#CSc1c[nH]c2cccc(/C=C/C(=O)/C=C(O)/C=C/c3cccc4[nH]cc(SC#N)c34)c12 ) reads -71.2% (active)

Field growth (entry Nc1nc(N)c(N=Nc2ccccc2)c(-c2ccccc2)n1 ) reads 56% (inactive)

Field growth (entry C/C(=N\O)c1ccc(NC(=O)CSc2nnc(-c3cc(-c4ccc(S(C)(=O)=O)cc4)nc4ccccc34)n2-c2ccccc2)cc1 ) reads 89.2% (inactive)

Field growth (entry CNC(C)[C@H]1CCC2C3CC=C4C(=O)[C@@H](NC(=O)C=C(C)C)CC[C@]4(C)C3CC[C@@]21C (some centres not stated) ) reads 17% (inactive)

Field growth (entry CC1=C(C(=O)Nc2ccccc2)C(c2ccc3c(c2)OCO3)NC(=S)N1 (configuration not stated) ) reads 104% (inactive)

Field growth (entry O=C(CCCCCCN1CC(=O)N2[C@H](c3ccc(Cl)cc3)c3[nH]c4ccccc4c3C[C@@H]2C1=O)NO ) reads 63.1% (inactive)

Field growth (entry CCn1cc(CNc2ccc(C(=O)Nc3cc4cc(OC)c(OC)cc4c(C)n3)cc2)cn1 ) reads 79.3% (inactive)

Field growth (entry O=C(Nc1ncc(Cc2cc(C(F)(F)F)ccc2Cl)s1)c1cccs1 ) reads 70.9% (inactive)

Field growth (entry CCNC(=O)Oc1ccc(/C(=C(/C)Cc2ccc(OC)cc2)c2ccc(OCCN3CCCCC3)cc2)cc1 ) reads 71.4% (inactive)

Field growth (entry O=C(CCCCCCN1CC(=O)N2[C@H](c3ccc(Br)cc3)c3[nH]c4ccccc4c3C[C@@H]2C1=O)NO ) reads 56.6% (inactive)

Field growth (entry COc1cc(C(=O)c2c(-c3ccccc3)oc3c(OC)cccc23)cc(OC)c1OC ) reads 22.1% (inactive)

Field growth (entry COC(=O)/C=C1/SC(=Nc2ccc([N+](=O)[O-])cc2)N(CCc2c[nH]c3ccc(O)cc23)C1=O ) reads 45.8% (inactive)

Field growth (entry Nc1c(C(=O)Nc2cccc(Cl)c2)sc2nc3c(cc12)CCCC3 ) reads 97.6% (inactive)

Field growth (entry C=C1C(=O)O[C@H]2[C@H]1CC/C(COC(=O)/C=C\C(=O)NCc1ccc(Cn3c(=O)sn(CCCCC)c3=O)cc1)=C\CC[C@@]1(C)O[C@@H]21 ) reads 71% (inactive)

Field growth (entry O=C(/C=C/C12c3ccccc3C(c3ccccc31)C1C(=O)NC(=O)C12)c1ccc(Br)cc1 (configuration not stated) ) reads 46.2% (inactive)
